Consider the following substances; for each one, report its MBEC^tt.
Tested on: A. baumannii ATCC 19606 biofilm
Assay type: cell-based, Acinetobacter baumannii
Conditions: ATCC 19606, 24 h
Where no end group is shown, it is not given here.
Numeric only. Scale: µg/mL

Using the record for GLFDVIKKVASVIGGL-NH2 [Citropin 1.1] , report its MBEC^tt.
32

Another: KRRWPWWPWRLI-NH2 [r-Omiganan]
128

Another: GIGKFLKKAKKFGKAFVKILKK-NH2 [Pexiganan]
32

Another: ILRWPWWPWRRK-NH2 [Omiganan]
128

Another: FLPLIGRVLSGIL-NH2 [Temporin A]
256

----------
System: A. baumannii ATCC 19606 biofilm
Format: cell-based, Acinetobacter baumannii
Details: 24 h biofilm on 0.5-cm tracheal tube fragments, 24 h treatment at 37 °C, resazurin read-out, triplicate
Consider the following compounds; for each one, report its MBEC^tt.
Numeric only. Scale: µg/mL

Using the record for CC[C@H]1OC(=O)[C@H](C)[C@@H](O[C@H]2C[C@@](C)(OC)[C@@H](O)[C@H](C)O2)[C@H](C)[C@@H](O[C@@H]2O[C@H](C)C[C@H](N(C)C)[C@H]2O)[C@](C)(O)C[C@@H](C)C(=O)[C@H](C)[C@@H](O)[C@]1(C)O [Erythromycin, reference compound] , report its MBEC^tt.
16

Another: CN(C)[C@@H]1C(O)=C(C(N)=O)C(=O)[C@@]2(O)C(O)=C3C(=O)c4c(O)cccc4[C@@](C)(O)[C@H]3C[C@@H]12 [Tetracycline, reference compound]
4
